- System: CCRF-CEM leukemia
- METHOD: NCI-60 one-dose screen, 48 h
- CONDITION_SUMMARY: 10 µM
- Procedure: Growth inhibition of the CCRF-CEM human tumor cell line is measured as a screen for anti-cancer activity. Cells are grown in 96 well plates and exposed to the test compound for 48 hours. Compounds are tested at a single concentration, which is 10^-5 M for most compounds. The reported endpoint is percent growth (GI% or GIPRCNT), where numbers from 0 - 100% represent growth inhibition, and numbers from -100% - 0 represent cell death. For example, a value of 40 represents 60% growth inhibition. […]
About 83,000 compounds went through this panel and 20% of them were active in at least one assay; those are over-represented in the sample as a whole. Calls of active or inactive are those of the source. The calls were made as follows: active = growth percent below 10; inactive = the rest.
Field 'call' accepts true (1) for active, false (0) for inactive

INSERT INTO measurements (compound, class_assignment) VALUES
  ('CCCC(C)OCC(=O)O (stereo not drawn)', 'false (0)'),
  ('COC1=CC(=O)c2nc(Cl)ccc2C1=O', 'true (1)'),
  ('CS(=O)CC1=NC(=N)N=C1CS(C)=O (stereo not drawn)', 'false (0)'),
  ('COC(=O)c1cc(-c2ccc(Cl)c(Cl)c2)[nH]c(=O)c1C#N', 'false (0)'),
  ('O=C(O)COCC(=O)O', 'false (0)');

Status in this test for COC(=O)/C=C\C(=O)OC ?
false (0)

State the result this test recorded for CN(C)c1nc2c([nH]1)c(=O)n(C)c(=O)n2C .
false (0)

Test call for this compound, please: NC(=S)N/N=C/c1ccc(N)cc1
false (0)

---

- Tested on: NCI-H23 lung
- METHOD: NCI-60 one-dose screen, 48 h (100 = growth as untreated, 0 = no growth, -100 = all killed)
- CONDITION_SUMMARY: 10 µM
The panel holds about 83,000 compounds, 20% with a hit somewhere; the sample as a whole holds those more often.
OBSERVED_PROPERTY: growth (%)
Your answer is read as %, so omit the unit and give the number.

INSERT INTO assay_data (molecule, unit_label, observed_value) VALUES
  ('CCOC(=O)C(O)C(O)C(=O)OCC (configuration not stated)', '%', 100);

Which growth reading was recorded for the molecule CCCCCCCCCCCCCCCCC1CC(=O)OC1=O (configuration not stated) ?
107

Consider the molecule shown here: COc1ccc(OC)c(/C=C2\CCc3ccccc3C2=O)c1 What is its recorded growth?
62.7

---

- System: MCF7 breast
- METHOD: NCI-60 one-dose screen, 48 h (100 = growth as untreated, 0 = no growth, -100 = all killed)
- CONDITION_SUMMARY: 10 µM unless noted
Compounds without any hit were thinned out: in the full panel of roughly 83,000, 20% have a hit.
OBSERVED_PROPERTY: growth (%)
Number only, in %; omit the unit.

# example entries with known answers
INSERT INTO assay_data (compound, observed_property, observed_value) VALUES
  ('CO[C@H]1C[C@@H]2CC[C@@H](C)[C@@](O)(O2)C(=O)C(=O)N2CCCC[C@H]2C(=O)O[C@H]([C@H](C)C[C@@H]2CC[C@@H](O)[C@H](OC)C2)CC(=O)[C@H](C)C=C(C)[C@@H](O)[C@@H](OC)C(=O)[C@H](C)C[C@H](C)/C=C/C=C/C=C1C', 'growth', 23.8),
  ('COC(=O)c1ccccc1Br', 'growth', 106),
  ('O=C1C=CC2=C3c4cc(O)c(O)cc4CC3(O)COC2=C1O (stereo not drawn)', 'growth', 98.1);

Query: growth; subject: Oc1ccc(Cc2ccccc2)c2cccnc12
14.1

Sample O=c1cc(-c2ccccc2)[nH]c2c1CCCC2 — what was its growth?
17.2

Form field: reported growth of O=C(CN1CCNCC1)N1CCOCC1
97.8

So what does the record say about growth for CN(c1ccccc1)c1ncnc2c1ncn2C ?
97.8

meta.source: PubChem BioAssay (NCI)
